Assay: calcein-AM signal in unstimulated myeloma cells – cell-based, calcein-AM fluorescence, 48 h, PK04 Diversity Set, profiling panel (AID 1166);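 also: cells grown under basal conditions without added stimulus; test concentration not given here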
Conditions: RPMI8226 myeloma viability, higher = more signal

{"Smiles entry": "C=C(CCCC)C(=O)CC[C@@H](OC(C)=O)c1ccc(CO)o1", "z-score": -0.878}
{"Smiles entry": "C=CCNC(=O)[C@@H]1[C@H]2C(=O)O[C@H](c3ccccc3)[C@H](c3ccccc3)N2[C@H](c2ccc(OCCO)cc2)[C@@]12C(=O)N(C(=O)OCCOC)c1ccc(C#CCNC(N)=O)cc12", "z-score": -1.6}
{"Smiles entry": "C=CC[C@]1(C(N)=O)N=C(c2ccc(OCCCO)cc2)O[C@H]1c1ccccc1", "z-score": -0.111}

###

Assay: viability profiling in RPMI8226 myeloma cells – cell-based, resazurin fluorescence, basal, 24 h, PK04 Diversity Set, profiling panel (AID 1180);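 also: RPMI8826 multiple myeloma cell line at 5000 cells per well; test concentration not given here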
Details: higher = more signal
Reported endpoint: z-score

{"Compound": "COc1ccc(C(=O)Nc2cccc(CN3C(=O)[C@]4(O[C@H](CCn5cc(CCO)nn5)[C@@H]([Si](C)(C)c5ccc(OC)cc5)[C@@H]4C)c4ccccc43)c2)cc1", "Assay result": -6.19}
{"Compound": "CC(=CC1CCCCC1)[C@@H](NC(=O)c1cccnc1)c1ccc(-c2ccccc2)cc1", "Assay result": -1.22}
{"Compound": "O=C1C2C=CC(C(O)c3ccc(-c4ccccc4)s3)N(Nc3ccccc3)C2C(=O)N1c1ccccc1 (stereo not drawn)", "Assay result": 0.428}
{"Compound": "NC(=O)[C@@H]1[C@H]2C(=O)O[C@H](c3ccccc3)[C@H](c3ccccc3)N2[C@H](c2ccc(O)cc2)[C@@]12C(=O)Nc1ccc(C#CC3=CCCCC3)cc12", "Assay result": -6.39}
{"Compound": "CCCC[C@@H]1C[C@H]1[C@@H](NC(=O)c1cccnc1)c1ccc(Cl)cc1", "Assay result": -0.663}
{"Compound": "CCCCCCCCCCC(O)C1C=CC2C(=O)NC(=O)C2N1Nc1ccc(Cl)cc1Cl (stereo not drawn)", "Assay result": -1.51}
{"Compound": "COC(=O)[C@@]1(Cc2ccccc2)[C@H]2c3cc(C(=O)N(C)C)n(CCc4c[nH]c5ccc(O)cc45)c3C[C@H]2CN1C(=O)c1ccccc1", "Assay result": -1.27}
{"Compound": "COc1ccc(CCNC(=O)[C@@]2(C)c3ccccc3C(=O)N(c3ccc(C)cn3)[C@H]2c2ccc(CO)cc2)cc1", "Assay result": 0.933}
{"Compound": "O=C1OCCC=C[C@H]2OC34C=CCN(c5ccc(Cl)cc5)C(=O)[C@H]3N(CCCO)C(=O)[C@@H]4C12 (stereo partly drawn)", "Assay result": -0.658}
{"Compound": "NCCCCCNC(=O)[C@H]1C[C@H]2C(=O)N[C@@H](Cc3ccccc3)C(=O)N2[C@H]1c1cccc(OCCO)c1", "Assay result": 0.953}
{"Compound": "CCCCCCc1nc(-c2ccc(-c3ccc(Cl)c(Cl)c3)o2)c(C)c2c1[Si](C(C)C)(C(C)C)OC2", "Assay result": -1.42}
{"Compound": "COc1ccc(-c2cc3c(c(Cc4ccccc4)n2)[Si](C(C)C)(C(C)C)OC3)cn1", "Assay result": 0.626}
{"Compound": "C=CCN1C(=O)[C@]2(Cc3ccccc3)N=C(c3ccc(OCCCO)cc3)O[C@@H]2c2ccccc21", "Assay result": -5.39}
{"Compound": "CC(C)CN1C(=O)[C@@]2(c3ccc([N+](=O)[O-])cc3)CC(=O)N(C3CCCCC3)[C@@H]2c2ccc(CO)cc21", "Assay result": -0.323}
{"Compound": "COc1cc(OC)c(C(O)C2C=CC3C(=O)NC(=O)C3N2Nc2ccccn2)cc1Br (stereo not drawn)", "Assay result": -0.195}
{"Compound": "COc1cc2c(cc1OC)CN(C(=O)[C@H]1[C@@H]3C(=O)O[C@@H](c4ccccc4)[C@@H](c4ccccc4)N3[C@@H](c3ccccc3OCCO)[C@]13C(=O)Nc1ccc(C#CCCO)cc13)CC2", "Assay result": -0.0397}
{"Compound": "NC(=O)[C@@]1(Cc2ccccc2)N=C(c2ccc(OCCCO)cc2)O[C@H]1c1ccccc1", "Assay result": -0.0693}
{"Compound": "O=C(O)[C@H](Cc1ccccc1)n1cc(-c2ccccc2)nn1", "Assay result": -0.46}

###

Test: blockers of DNA damage checkpoint Chk1 activation – imaging, HeLa, hydroxyurea, phospho-Chk1 nuclear intensity, primary screen (AID 1187); also: test concentration not given here
Settings: hydroxyurea-induced phospho-Chk1 immunofluorescence imaging, higher = more signal

{"Compound": "CCOc1cc(C(O)C2C=CC3C(=O)N(c4ccccc4)C(=O)C3N2Nc2ccc(C(C)C)cc2)ccc1O (centres undefined)", "z-score": 0.241}
{"Compound": "C=CCNC(=O)[C@H]1[C@@H]2C(=O)O[C@@H](c3ccccc3)[C@@H](c3ccccc3)N2[C@@H](c2ccc(O)cc2)[C@]12C(=O)Nc1ccc(C#CCCO)cc12", "z-score": -0.136}
{"Compound": "COCC(=C=CC[C@H](O)c1cccc(OCCO)c1)CCO", "z-score": -0.479}
{"Compound": "COc1ccc([C@H]2OC[C@@H]3CCC(=O)N32)cc1", "z-score": -0.183}

###

Target: Fibroblast growth factor 10 (Homo sapiens)
Experiment: compounds binding fibroblast growth factor 10 – biochemical, small-molecule microarray, 635 nm fluorescence, primary screen (AID 1102)
Details: FGF10 binding, fluorescence 635 nm, higher = more signal
# maps each entry to its composite z-score

{"Compound": "COc1ccccc1CN1C(=O)c2ccccc2[C@@]2(Cc3ccccc3N(CCCN(C)C)C2=O)[C@@H]1c1ccc(CO)cc1", "Tgt": "Fibroblast growth factor 10 (Homo sapiens)", "composite z-score": 0.165}
{"Compound": "O=C(NCc1ccccc1)[C@@H]1c2ccccc2C(=O)N(C2Cc3ccccc3C2)[C@H]1c1ccc(CO)cc1", "Tgt": "Fibroblast growth factor 10 (Homo sapiens)", "composite z-score": 0.732}
{"Compound": "CS(=O)(=O)CCOC(=O)C1=CC(CCCO)=CC(C2CC2)N(Cc2cc3c(cc2Br)OCO3)C=C1C(=O)OCCS(C)(=O)=O (stereo not drawn)", "Tgt": "Fibroblast growth factor 10 (Homo sapiens)", "composite z-score": 0.615}
{"Compound": "CC(C)NC(=O)[C@@]1(Cc2ccccc2I)c2ccccc2C(=O)N(Cc2ccccc2Cl)[C@H]1c1ccc(CO)cc1", "Tgt": "Fibroblast growth factor 10 (Homo sapiens)", "composite z-score": 1.1}
{"Compound": "O=C1OCC=C[C@H]2OC34C=CCN(CCN5CCOCC5)C(=O)[C@H]3N(CCO)C(=O)[C@@H]4[C@@H]12 (stereo partly drawn)", "Tgt": "Fibroblast growth factor 10 (Homo sapiens)", "composite z-score": -0.787}
{"Compound": "CS(=O)(=O)CCOC(=O)C1=CC(CCCO)=CC(c2ccc(CN3CCCC3)cc2)N(Cc2cccc(OC(F)(F)F)c2)C=C1C(=O)OCCS(C)(=O)=O (stereo not drawn)", "Tgt": "Fibroblast growth factor 10 (Homo sapiens)", "composite z-score": 1.19}
{"Compound": "N#Cc1ccc(C(O)C2C=CC3C(=O)N(c4ccccc4)C(=O)C3N2Nc2ccccc2F)cc1 (stereo not drawn)", "Tgt": "Fibroblast growth factor 10 (Homo sapiens)", "composite z-score": 0.877}
{"Compound": "C=CCNC(=O)[C@@H]1[C@H]2C(=O)O[C@H](c3ccccc3)[C@H](c3ccccc3)N2[C@H](c2ccc(OCCO)cc2)[C@@]12C(=O)N(C(=O)OCCOC)c1ccc(C#CCC(C(=O)OC)C(=O)OC)cc12", "Tgt": "Fibroblast growth factor 10 (Homo sapiens)", "composite z-score": 1.07}
{"Compound": "COCC(=C=CC[C@H](O)c1cccc(OCCO)c1)C[C@H](O)c1cc(Cl)cc(Cl)c1O", "Tgt": "Fibroblast growth factor 10 (Homo sapiens)", "composite z-score": 1.55}
{"Compound": "[N-]=[N+]=Nc1ccccc1C[C@]1(C(=O)N2CCCCC2)COC(c2ccc(OCCCO)cc2)=N1", "Tgt": "Fibroblast growth factor 10 (Homo sapiens)", "composite z-score": 1.28}
{"Compound": "NC(=O)NCC#Cc1ccc2c(c1)[C@]1(C(=O)N2)[C@H](C(=O)O)[C@H]2C(=O)O[C@H](c3ccccc3)[C@H](c3ccccc3)N2[C@@H]1c1ccc(O)cc1", "Tgt": "Fibroblast growth factor 10 (Homo sapiens)", "composite z-score": 0.295}
{"Compound": "O=C1OCC=C[C@H]2OC34C=CCN(Cn5nnc6ccccc65)C(=O)[C@H]3N(CCCCCO)C(=O)[C@@H]4[C@@H]12 (stereo partly drawn)", "Tgt": "Fibroblast growth factor 10 (Homo sapiens)", "composite z-score": -0.658}
{"Compound": "O=c1cccc(-c2ccccc2Cl)o1", "Tgt": "Fibroblast growth factor 10 (Homo sapiens)", "composite z-score": 0.425}
{"Compound": "Cc1ccc(S(=O)(=O)N2C[C@@H](C(=O)O)[C@H](Sc3ccccc3)C[C@H]2c2ccccc2)cc1", "Tgt": "Fibroblast growth factor 10 (Homo sapiens)", "composite z-score": 1.15}
{"Compound": "COc1cc(CO)cc(I)c1O[C@H]1C=C(C(=O)NCCO)C[C@@H](NC[C@@H]2CCCO2)[C@@H]1O", "Tgt": "Fibroblast growth factor 10 (Homo sapiens)", "composite z-score": 0.671}
{"Compound": "COCCOC(=O)N1C(=O)[C@@]2(c3ccccc31)[C@H](c1ccc(OCCO)cc1)N1[C@H](c3ccccc3)[C@H](c3ccccc3)OC(=O)[C@H]1[C@@H]2C(=O)N1CCc2cc(OC)c(OC)cc2C1", "Tgt": "Fibroblast growth factor 10 (Homo sapiens)", "composite z-score": 1.29}
{"Compound": "CN(C)CCCCCCNC(=O)[C@@H]1C[C@@H]2C(=O)N[C@@H](CCCC[N+](C)(C)C)C(=O)N2[C@@H]1c1ccc(O)cc1", "Tgt": "Fibroblast growth factor 10 (Homo sapiens)", "composite z-score": 0.421}
{"Compound": "CC(=O)NCCCC[C@@H]1NC(=O)[C@H]2C[C@@H](C(=O)NCCCCCNC(=O)CS)[C@@H](c3ccc(O)cc3)N2C1=O", "Tgt": "Fibroblast growth factor 10 (Homo sapiens)", "composite z-score": 0.157}
{"Compound": "C[C@H]1C2[C@H](Cc3ccccc3)NC(=O)[C@]23C(=O)NCC(=O)N2CCC[C@H]2C(=O)NC/C=C/CCC/C=C/C3[C@@H]2O[C@]12C (stereo partly drawn)", "Tgt": "Fibroblast growth factor 10 (Homo sapiens)", "composite z-score": -0.568}
{"Compound": "[N-]=[N+]=Nc1ccccc1C[C@]1(C(=O)NCc2ccccc2)N=C(c2ccc(OCCCO)cc2)O[C@H]1c1ccccc1N=[N+]=[N-]", "Tgt": "Fibroblast growth factor 10 (Homo sapiens)", "composite z-score": 1.31}
{"Compound": "C=CCN1C(=O)[C@]2(Cc3ccccc3)N=C(c3ccc(OCCCO)cc3)O[C@@H]2c2ccccc21", "Tgt": "Fibroblast growth factor 10 (Homo sapiens)", "composite z-score": 0.755}
{"Compound": "COc1ccc(C(O)C2C=CC3C(=O)N(C)C(=O)C3N2N(c2ccccc2)c2ccccc2)c2ccccc12 (stereo not drawn)", "Tgt": "Fibroblast growth factor 10 (Homo sapiens)", "composite z-score": 0.784}
{"Compound": "COC(=O)[C@@]1(Cc2ccccc2)[C@H]2c3cc(C(=O)N(C)C)n(CCc4c[nH]c5ccc(O)cc45)c3C[C@H]2CN1C(=O)c1ccccc1", "Tgt": "Fibroblast growth factor 10 (Homo sapiens)", "composite z-score": 0.288}
